- Tested on: U251 CNS
- Experiment Notes: NCI-60 one-dose screen, 48 h (100 = growth as untreated, 0 = no growth, -100 = all killed)
- Measurement Conditions: 10 µM unless noted
Compounds without any hit were thinned out: in the full panel of roughly 83,000, 20% have a hit.
Category | rule: reported growth within range, see low range = under 30%, mid range = from 30% up to 90%, high range = 90% and over

compound=Cc1ccc2[nH]cc(-c3nc(-c4cn(C)c5ncccc45)cs3)c2c1 target_under_test="U251 CNS" label_value="high range"
compound="COc1cc2ncnc(Nc3ccc(Oc4ccnc(C)c4)c(C)c3)c2cc1NC(=O)CC1CCSS1 (stereo not given)" target_under_test="U251 CNS" label_value="low range"
compound=Clc1ccc2[nH]cc(-c3nc(-c4c[nH]c5ncccc45)cs3)c2c1 target_under_test="U251 CNS" label_value="mid range"
compound=C=C(C)[C@@H]1CC[C@]2(C)[C@H](CC[C@@H]3[C@H]4[C@H]5OC[C@@]4(CCC5(C)C)CC[C@]32C)[C@@]1(C)CCCN target_under_test="U251 CNS" label_value="low range"
compound="O=C(c1ccccc1)C(CN1CCOCC1)c1ccccc1 (stereo not given)" target_under_test="U251 CNS" label_value="low range"
compound=COc1cc(-c2cc3cc(O)ccc3oc2=O)cc(OC)c1OC target_under_test="U251 CNS" label_value="high range"
compound=COc1cc2nc(Cl)nc(Nc3cccc(C(=O)/C=C/c4ccc(F)cc4)c3)c2cc1OC target_under_test="U251 CNS" label_value="mid range"
compound=O=[N+]([O-])c1cc(S(=O)(=O)c2ccc(F)c([N+](=O)[O-])c2)ccc1F target_under_test="U251 CNS" label_value="mid range"
compound=Nc1c(Cl)cc(N=Nc2ccccc2)cc1Cl target_under_test="U251 CNS" label_value="high range"
compound=C#CCn1c(C)cc(C)c(C#N)c1=O target_under_test="U251 CNS" label_value="high range"

---

- System: SF-539 CNS
- Experiment Notes: NCI-60 one-dose screen, 48 h (100 = growth as untreated, 0 = no growth, -100 = all killed)
- Measurement Conditions: 10 µM unless noted
The panel holds about 83,000 compounds, 20% with a hit somewhere; the sample as a whole holds those more often.
Property Name: growth (%)

molecule=O=C(NO)c1ccc(Cn2c(=O)n(CCc3ccc(O)cc3)c(=O)c3ccccc32)cc1 target_under_test="SF-539 CNS" recorded_measurement=3.09
molecule=COc1cc(-c2cc(-c3nc4ccccc4[nH]3)[nH]n2)cc(OC)c1OC target_under_test="SF-539 CNS" recorded_measurement=74.8
molecule=O=c1[nH]c2c3ccncc3cc(-c3cccc(Cl)c3)c2c2cnccc12 target_under_test="SF-539 CNS" recorded_measurement=2.59
molecule=N#C/C(=C\c1ccc(-c2ccc(Cl)cc2)o1)c1nc(-c2ccco2)cs1 target_under_test="SF-539 CNS" recorded_measurement=94.7
molecule=C#CCn1c(C)cc(C)c(C#N)c1=O target_under_test="SF-539 CNS" recorded_measurement=97.7
molecule=O=C(NC1=CC(=O)c2ccccc2C1=O)c1ccccc1 target_under_test="SF-539 CNS" recorded_measurement=10.5
molecule=C/C(=N\Nc1cc(C)c2ccccc2n1)c1ccccn1 target_under_test="SF-539 CNS" recorded_measurement=-53.8
molecule=C=C1C(=O)O[C@H]2[C@H]1CC/C(COC(=O)NCc1c[nH]c3ccccc13)=C\CC[C@@]1(C)O[C@@H]21 target_under_test="SF-539 CNS" recorded_measurement=7.38
molecule=O=S(=O)(NCCNc1cc(-c2cn(-c3ccccc3)nc2-c2cccc(O)c2)ccn1)c1ccc(F)cc1 target_under_test="SF-539 CNS" recorded_measurement=44.4
molecule="COc1cc2ncnc(Nc3ccc(Oc4ccnc(C)c4)c(C)c3)c2cc1NC(=O)CC1CCSS1 (stereo unspecified)" target_under_test="SF-539 CNS" recorded_measurement=1.45
molecule=COc1ccc(-c2n/c(=C\c3c(O)[nH]c4ccc(OC)cc34)cc3c2=Nc2ccccc2-3)cc1 target_under_test="SF-539 CNS" recorded_measurement=-48
molecule=Cc1ccc(Sc2sc(-c3ccccc3)nc2[P+](c2ccccc2)(c2ccccc2)c2ccccc2)cc1 target_under_test="SF-539 CNS" recorded_measurement=11.8
molecule=Nc1ccccc1NC(=O)c1ccc(CN2CCC/C(=C\c3ccccn3)C2=O)cc1 target_under_test="SF-539 CNS" recorded_measurement=27.4
molecule=Cc1cc(N2CCCCC2)nc(N(CCCNc2ccnc3cc(Cl)ccc23)Cc2ccco2)n1 target_under_test="SF-539 CNS" recorded_measurement=-36.5
molecule=CC(=O)Nc1cc(F)cc(C(F)(F)F)c1Cl target_under_test="SF-539 CNS" recorded_measurement=97.6
molecule=O=C1C(Cl)=C(Nc2ccc(S(=O)(=O)c3ccc(NC4=C(Cl)C(=O)c5ccccc5C4=O)cc3)cc2)C(=O)c2ccccc21 target_under_test="SF-539 CNS" recorded_measurement=1.36
molecule="CC(=O)OC(C)COc1ccc(-c2ccccc2)cc1 (stereo unspecified)" target_under_test="SF-539 CNS" recorded_measurement=101
molecule="N#CC1=C(N)Oc2c(c(N)nn2-c2ccccc2)C1c1ccc(Cl)cc1Cl (stereo unspecified)" target_under_test="SF-539 CNS" recorded_measurement=94.3
molecule=NC(N)=N/N=C/c1ccc(-c2ccc(-c3ccc(Cl)cn3)s2)cc1 target_under_test="SF-539 CNS" recorded_measurement=85.9
molecule=Cc1cc(Cl)c2c(N(C)C)cccc2n1 target_under_test="SF-539 CNS" recorded_measurement=106
molecule=CN(C)c1ccc(-c2ccc(-c3ccc(C(=N)N)c(F)c3)s2)cc1 target_under_test="SF-539 CNS" recorded_measurement=-93
